- System: NCI/ADR-RES
- METHOD_NOTES: NCI tumour cell line growth inhibition, 48 h
Activity calls are given as the source filed them. No stated cut-off is given here; in the data, active = GI50 up to about 1.1 µM and inactive = higher.
QUANTITY: GI50

For the compound Cc1ccc(O)cc1.Cc1cccc(O)c1.Cc1ccccc1O , give its measured GI50 value. > 100 µM (inactive)

For the compound CCOC(=O)CC(=O)Nc1c(C(=O)OCC)sc2nc(SC)nc(Nc3ccc(OC)c(OC)c3)c12 , give its measured GI50 value. 8.77 µM (inactive)

For the compound CCOC(=O)C1=C(N)N2C(=N[C@H]3CCCC[C@@H]32)N=C1 , give its measured GI50 value. > 100 µM (inactive)

For the compound S=c1c2cn[nH]c2nc2scc(-c3ccc(Cl)cc3)n12 , give its measured GI50 value. 13.8 µM (inactive)

For the compound Cc1c(/C=N/NC(=S)Nc2ccccc2Cl)c(=O)n(-c2ccccc2)n1C , give its measured GI50 value. 20.2 µM (inactive)

For the compound COC(=O)c1ccc(NCC2=CC(=O)c3ccccc3C2=O)cc1 , give its measured GI50 value. 27.5 µM (inactive)

For the compound COc1cc(/C=N\N(C)C)cc(/C=N/N(C)C)c1O , give its measured GI50 value. 25.4 µM (inactive)

For the compound CN(C)c1ccc(/C=C2\N=C(N/N=C/c3ccccc3)NC2=O)cc1 , give its measured GI50 value. 29.1 µM (inactive)

For the compound Nc1ccc(Oc2ccc(C34CC5CC(C3)CC(c3ccc(Oc6ccc(N)cc6C(F)(F)F)cc3)(C5)C4)cc2)c(C(F)(F)F)c1 , give its measured GI50 value. 21.7 µM (inactive)

====

- Test system: HCC 2998
- METHOD_NOTES: NCI tumour cell line growth inhibition, 48 h
Activity calls are given as the source filed them. No stated cut-off is given here; in the data, active = GI50 up to about 1.1 µM and inactive = higher.
Classes to choose from: active, inactive

These solved cases illustrate the format of a correct answer.
INSERT INTO results (compound, system_tested, discrete_label) VALUES
  ('COC(=O)CNC(=O)C(CSC(=O)OCC1c2ccccc2-c2ccccc21)NC(=O)CCC(NC(=O)OCC1c2ccccc2-c2ccccc21)C(=O)OC (configuration not stated)', 'HCC 2998', 'inactive'),
  ('COC(=O)/C(=C\c1cn(C(C)=O)c2ccccc12)P(=O)(OC)OC', 'HCC 2998', 'inactive'),
  ('O=C1Oc2ccccc2C(=O)/C1=C/N1C(=O)/C(=C/c2ccc([N+](=O)[O-])cc2)SC1=S', 'HCC 2998', 'inactive'),
  ('O[C@H]1[C@H](O)[C@@H](O)CN2CC[C@H](O)[C@H]12 [CASTANOSPERMINE]', 'HCC 2998', 'inactive'),
  ('CCN(CC)CCCNc1nncc2c(C)c3[nH]c4ccc(OC)cc4c3cc12', 'HCC 2998', 'active');

How did this test come out for Cc1ccc(NC(=S)N/N=C(/c2ccccc2)c2ccccn2)cc1 ? inactive

How did this test come out for O=C1NC(=S)N/C1=C\c1ccc(Sc2ccccc2C(=O)O)s1 ? inactive

====

- Tested on: HT-29
- METHOD_NOTES: NCI tumour cell line growth inhibition, 48 h
The source made the active and inactive calls. Rule as the data show it: active = GI50 up to about 1.1 µM and inactive = higher.
Classes to choose from: 1.0 (active), 0.0 (inactive)

These solved cases illustrate the format of a correct answer.
INSERT INTO measurements (compound, discrete_label) VALUES
  ('CCCCOC(=O)NC(=O)c1cn(CCSCCOC(=O)NCCCCCCNC(=O)OCCSCCn2cc(C(=O)NC(=O)OCCCC)c(=O)[nH]c2=O)c(=O)[nH]c1=O', 0.0),
  ('CN(Cc1cnc2c(n1)C(N)=NN(N)N2)c1ccc(C(=O)NC(CCP(=O)(O)O)C(=O)O)cc1 (stereo not drawn)', 0.0);

Here is the next item to consider.
How did this test come out for c1ccc(P(CCP(c2ccccn2)c2ccccn2)c2ccccc2)cc1 ? 1.0
